Data credit: patent US20070244297A1

- assay.target: recombinant human neuronal calcium channel α1B-1α2b (human)
recorded.metric: Kd (nM)

# binder, recorded.metric, recorded.number
records = [
    ("CKSPGSSCSPTSYNCCRSCNPYTKRCYG (modifications not checked) [125I-ω-CgTx GVIA, P01522 46-73]", "Kd", 0.0846),
]
